# tested target: T1, human MC5 receptor (human, UniProt P33032 1-325)
# T1 construct: whole, on cells; It was tested as crude membranes prepared from cells expressing the receptor; also called hMC-5R
# T1 sequence (P33032 whole entry): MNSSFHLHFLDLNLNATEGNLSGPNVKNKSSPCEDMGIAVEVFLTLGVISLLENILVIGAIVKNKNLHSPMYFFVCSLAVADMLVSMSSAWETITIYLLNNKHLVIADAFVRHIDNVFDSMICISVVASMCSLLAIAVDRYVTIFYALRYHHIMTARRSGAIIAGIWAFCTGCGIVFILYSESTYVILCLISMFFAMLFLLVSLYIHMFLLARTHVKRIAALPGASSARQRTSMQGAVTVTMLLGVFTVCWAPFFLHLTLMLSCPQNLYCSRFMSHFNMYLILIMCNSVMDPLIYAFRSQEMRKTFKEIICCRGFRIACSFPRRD
pIC50: −log10 of the molar value.
measured property: pIC50

(P) SYSMEHFRWGKPVGKKRRPVKVYPNGAEDESAEAFPLEF (peptide, UniProt P01189 138-176, looked up, domain: ACTH1-39; The numbers 1-39 count on the ACTH peptide, not on the precursor) [ACTH1-39]
(Q) DEGPYRMEHFRWGSPPKD (peptide, UniProt P01189 217-234, looked up, domain: beta MSH; The peptide is only a part of it; also called β-MSH) [Beta MSH]
Q: Select one: P or Q . Criterion: greater recorded pIC50. Bench note: the answer is the label of the chosen record.
Result: P
